Tested on: Zika virus NS2B-NS3 protease (linked construct)
Assay: Confirmatory screen NINDS AMC qHTS for Zika virus inhibitors (AID 1347152); also: potency is read from the fitted curve at half-maximal effect; nearly all actives have a fitted effect of over 70% in size
Conditions: Purified linked NS2B-NS3, AMC substrate fluorescence; series mostly up to 56.6 µM
Records with an inconclusive call do not appear. Active and inactive are the calls of the source. Calls follow the shape of the dose curve; as a rule, active = well fitted inhibition curve with a large enough effect; inconclusive = small, poorly fitted or top-dose-only effect; inactive = flat fitted curve, though single readings scatter.
Each entry below carries its reported Potency.

>>> df
                                   molecule  reportedmeasurement
0  N#CC1C(=O)Nc2scc(-c3ccc(-c4ccccc4O)cc3)c2C1=O (configuration not stated)     22.1 µM (active)
1  CC(C)C(=O)c1cn(CC(=O)COc2ccc(Oc3ccccc3)cc2)c2ccc(C(=O)O)cc12     44.1 µM (active)
2  O=C(O)c1cnn(-c2nc3cc(OC(F)(F)F)c(Cl)cc3[nH]2)c1     40.3 µM (active)

Which Potency is reported with Zika virus NS2B-NS3 protease (linked construct) for this entry: O=C(/C=C/c1c(C(=O)O)[nH]c2cc(Cl)cc(Cl)c12)Nc1ccccc1 ?
44.1 µM (active)

Provide the documented Potency with Zika virus NS2B-NS3 protease (linked construct) as the system for O=C(O)c1cc(O)c2cccc(O)c2c1O[C@@H]1O[C@H](CO)[C@@H](O)[C@H](O)[C@H]1O
30.6 µM (active)

Request: Potency, test system Zika virus NS2B-NS3 protease (linked construct), entry CCOc1ccc(-c2ccc(Cn3c(CC(C)(C)C(=O)O)c(SC(C)(C)C)c4cc(OCc5ccc(C)cn5)ccc43)cc2)cn1
7.84 µM (active)

----------
Test system: Zika virus NS2B-NS3 protease
Assay: Primary screen GU AMC qHTS for Zika virus inhibitors (AID 1347154);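 also: 0% = no-inhibitor control and -100% = no-enzyme control; nearly all actives have a fitted effect of over 70% in size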
Conditions: Zika NS2B-NS3 unlinked protease, AMC fluorogenic substrate; series mostly up to 54.1 µM
Results filed as inconclusive are left out. Activity calls are given as the source filed them. Calls follow the shape of the dose curve; as a rule, active = well fitted inhibition curve with a large enough effect; inconclusive = small, poorly fitted or top-dose-only effect; inactive = flat fitted curve, though single readings scatter. Peptide text beside a SMILES is read from it.
measuredParameter: activity change, negative = inhibition

These recorded examples may help you get a feel for the data.
In [3]: df
Out[3]:
                                   compound                       measuredparameter            reportedmeasurement
0             CCCCC/C=C\C/C=C\CCCCCCCC(=O)O  activity change, negative = inhibition  4.61% [at 6.83 µM] (inactive)
1  CC(=O)N[C@@H](CC(=O)O)C(=O)N[C@@H](CCC(=O)O)C(=O)O (Ac-Asp-Glu-OH)  activity change, negative = inhibition                       inactive
2  CCOC(=O)C1=CC2(CC)CCCN3CCc4c(n1c1ccccc41)C32 (stereo not given)  activity change, negative = inhibition                       inactive
3  O=C(O)CC/C=C\CC[C@H]1[C@@H](N2CCCCC2)[C@@H](O)C[C@@H]1OCc1ccc(-c2ccccc2)cc1  activity change, negative = inhibition                       inactive

// next item, activity change, negative = inhibition requested
# query: activity change, negative = inhibition of entry CC(C)N=c1cc2n(-c3ccc(Cl)cc3)c3ccccc3nc-2cc1Nc1ccc(Cl)cc1
inactive

----------
Test system: HEK293
Assay: Cytotoxic Profiling of Annotated Libraries Using Quantitative High-Throughput Screening (AID 1296008); also: nearly all actives have a fitted effect of over 60% in size
Settings: Five cell lines viability, CellTiter-Glo ATP luminescence, 48-72 h
Results filed as inconclusive are left out. Activity calls are given as the source filed them. The call rests on the fitted dose curve; in most records, active means well fitted inhibition curve with a large enough effect; inconclusive means small, poorly fitted or top-dose-only effect; inactive means flat fitted curve, though single readings scatter.
measuredParameter: outcome

In [3]: df
Out[3]:
                                   molecule  reportedmeasurement
0  O=C(/C=C/c1ccc(O)cc1)O[C@H]1[C@@H]2C=CO[C@@H](O[C@@H]3O[C@H](CO)[C@@H](O)[C@H](O)[C@H]3O)[C@@H]2[C@@]2(CO)O[C@@H]12             inactive
1  CCC(C)/C=C(C)/C=C/C1=CC2=C(Cl)C(=O)C(C)(OC(C)=O)C(=O)C2=CN1CCCC(=O)O (centres undefined)             inactive
2  C=CC1C(O[C@@H]2O[C@H](CO)[C@@H](O)[C@H](O)[C@H]2O)OC=C(C(=O)OC)C1CC(=O)O (some centres undefined)             inactive
3  C=C1CC2C3(C)C(O)CC(=O)C(C)(C)C3C(OC(C)=O)C(OC(C)=O)C2(C)C2C(=O)OC(C)(C(=O)OC)C(=O)C12C (centres undefined)             inactive

----------
Test system: Zika virus NS2B-NS3 protease (unlinked complex)
Assay: Primary screen GU Rhodamine qHTS for Zika virus inhibitors: Unlinked NS2B-NS3 protease assay (AID 1347159); also: nearly all actives have a fitted effect of over 60% in size
Settings: Recombinant ZIKV NS2B-NS3 protease, Rhodamine110 substrate fluorescence; series mostly up to 107 µM
Inconclusive results are not listed. The source made the active and inactive calls. Calls follow the shape of the dose curve; as a rule, active = well fitted inhibition curve with a large enough effect; inconclusive = small, poorly fitted or top-dose-only effect; inactive = no such curve, though single readings can be large or run the other way.
I would appreciate it if you answered using one of these outcomes: 1.0 (active), 0.0 (inactive)

Some solved cases for reference:
molecule	targetOrSystem	label
CC1CCC2(C)C(CC(O)C(O)C23CO3)C1(C)CCC1=CC(=O)OC1O (configuration not stated)	Zika virus NS2B-NS3 protease (unlinked complex)	0.0
O=C1CC(c2ccc([N+](=O)[O-])cc2)=NN1c1ccccc1	Zika virus NS2B-NS3 protease (unlinked complex)	1.0
COc1cc(/C=C/C(=O)OC(C)(C)C(OC2OC(CO)C(O)C(O)C2O)C(=O)OCc2ccc(OC3OC(CO)C(O)C(O)C3O)cc2)ccc1O (configuration not stated)	Zika virus NS2B-NS3 protease (unlinked complex)	0.0
OCCc1ccc(O[C@@H]2O[C@H](CO)[C@@H](O)[C@H](O)[C@H]2O)c(O)c1	Zika virus NS2B-NS3 protease (unlinked complex)	0.0
c1ccc(Cc2ncc3c(n2)CCNCC3)cc1	Zika virus NS2B-NS3 protease (unlinked complex)	0.0
C=C1CC[C@@H]2[C@](C)(CO[C@@H]3O[C@H](CO)[C@@H](O)[C@H](O)[C@H]3O)CCC[C@@]2(C)[C@@H]1CCC1=CCOC1=O	Zika virus NS2B-NS3 protease (unlinked complex)	0.0
N#CCc1ccc(O)cc1O[C@@H]1O[C@H](CO)[C@@H](O)[C@H](O)[C@H]1O	Zika virus NS2B-NS3 protease (unlinked complex)	0.0
CC(C)(O)/C=C1/C(=O)C(C)(C)C(=O)C(C)(C)C1(O)O[C@@H]1O[C@H](COC(=O)c2cc(O)c(O)c(O)c2)[C@@H](O)[C@H](O)[C@H]1O (some centres not stated)	Zika virus NS2B-NS3 protease (unlinked complex)	0.0
CC(=O)N1CCN(NC(=O)c2ccc(F)cc2)CC1	Zika virus NS2B-NS3 protease (unlinked complex)	0.0
C[C@@H]1C(=O)O[C@H]2CC34[C@H]5C[C@@H](C(C)(C)C)C36[C@@H](OC(=O)[C@@H]6O)OC4(C(=O)O5)[C@]21O (some centres not stated)	Zika virus NS2B-NS3 protease (unlinked complex)	0.0

// next entry
Called result for COc1c(C)c(OCC=C(C)C)cc2c1C(=O)NC2=O
0.0

----------
Tested on: CP217
Test: qHTS profiling for inhibitors of Plasmodium falciparum proliferation (AID 504749); also: nearly all actives have a fitted effect of over 60% in size
Conditions: P. falciparum in erythrocytes, SYBR Green DNA, 72 h; series mostly up to 28.7 µM
Inconclusive results are not listed. Activity calls are given as the source filed them. The call rests on the fitted dose curve; in most records, active means well fitted inhibition curve with a large enough effect; inconclusive means small, poorly fitted or top-dose-only effect; inactive means flat fitted curve, though single readings scatter. Peptide text beside a SMILES is read from it.
I would appreciate it if you answered using one of these outcomes: active, inactive

Solved entries (count: 5):
                                   compound     label
0                          COC(=O)CCC(=O)CN  inactive
1  CCCC(=O)O[C@]1(C(=O)CCl)[C@H](C)C[C@@H]2[C@H]3CCC4=CC(=O)C=C[C@]4(C)[C@@]3(F)C(=O)C[C@@]21C    active
2  CCCCC(=O)O[C@]1(C(=O)CO)[C@H](C)C[C@H]2[C@@H]3CCC4=CC(=O)C=C[C@]4(C)[C@@]3(F)[C@@H](O)C[C@@]21C  inactive
3  O=C(COc1ccc(Cl)cc1)OCCNC12CC3CC(CC(C3)C1)C2  inactive
4                               C=CCSSSCC=C  inactive

Could you kindly confirm the outcome this assay logged for Cc1cc(C(=O)NNCc2ccccc2)no1 ?
inactive

I'd appreciate the recorded outcome for Oc1cc(O)c2c(c1)OC(c1ccc(O)c(O)c1)C(O)C2 (stereo unspecified) from this test.
inactive

Test call for this compound, please: CC[N+](C)(C)Cc1ccccc1Br
inactive

Hi team, can someone confirm the assay call for IC(I)I ?
inactive

Fill in: this test's call for CC(=O)N[C@@H](CC(=O)O)C(=O)N[C@@H](CCC(=O)O)C(=O)O (Ac-Asp-Glu-OH) is ___
inactive

----------
Assay: Cell Viability - H-4-II-E (AID 543);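 also: cells exposed to compound for 40 hours; % is scaled to controls: 0 for no effect and ±100 for the full control effect; nearly all actives have a fitted effect of over 35% in size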
Conditions: H-4-II-E rat hepatoma viability; series mostly up to 92.2 µM
Results filed as inconclusive are left out. Calls of active or inactive are those of the source. Calls follow the shape of the dose curve; as a rule, active = well fitted cell-killing curve with a large enough effect; inconclusive = small, poorly fitted or top-dose-only effect; inactive = flat fitted curve, though single readings scatter.
Please state which outcome applies, choosing from active, inactive

>>> df
                                entrysmiles     label
0  CC1=C2[C@@H]([C@H](C)CC[C@H]2/C=C(\C)C(=O)O)[C@H](O)C1  inactive

// outcome(item) with item = CCOC(C)=O
inactive
